Tested on: E. coli TESEC Alr+ wild-type control
experiment: growth (OD600 after 10 h); higher = more growth (less inhibition)
cond: compound 0.1 mM; raw OD600 reference: median of DMSO wells 0.241, cell-free background 0.041
Where a name gives a salt, the structure may show the parent alone.
Entry flag: TRUE if growth reaches 0.2; FALSE if it does not.

Form field: growth at least 0.2? Entry: Cc1c(NC(C)C)c(=O)n(-c2ccccc2)n1C [Isopyrin hydrochloride]
TRUE

Given CC(CNC1CCCCC1)OC(=O)c1ccccc1 (configuration not stated) [Hexylcaine hydrochloride] , state whether its growth is at least 0.2.
TRUE

Could you verify whether the entry CNCCC=C1c2ccccc2CCc2ccccc21 [Nortriptyline hydrochloride] shows growth of no less than 0.2?
FALSE

Can CN(C)CCCSC(=N)N [Dimaprit dihydrochloride] be said to have growth at or above 0.2?
TRUE

# check: growth of Cc1cc2c(s1)Nc1ccccc1N=C2N1CCN(C)CC1 [Olanzapine] is greater than or equal to 0.2
TRUE

Please check the record CCN1CCC[C@H]1CNC(=O)c1c(O)c(Cl)cc(Cl)c1OC [Raclopride] and state if its growth is at or above 0.2.
FALSE

Item CC(=O)CCCCn1c(=O)c2c(ncn2C)n(C)c1=O [Pentoxifylline] with growth of 0.2 or above?
TRUE

Hi team, for O=C(CCCN1CCC(O)(c2ccc(Cl)cc2)CC1)c1ccc(F)cc1 [Haloperidol] , is the recorded growth at or above 0.2?
TRUE

Reported growth reaches at least 0.2 for C=C1/C(=C\C=C2/CCC[C@]3(C)[C@@H]([C@H](C)CCCC(C)C)CC[C@@H]23)C[C@@H](O)C[C@@H]1O [Alfacalcidol] ?
FALSE

Record CC(C[N+](C)(C)C)OC(N)=O (configuration not stated) [Bethanechol chloride] ; criterion: growth no lower than 0.2. Met?
TRUE

Decide: is the reported value of growth for NC(=O)N1c2ccccc2C=Cc2ccccc21 [Carbamazepine] equal to or greater than 0.2?
TRUE

hey, is growth for this one >= 0.2? C[C@]12C=CC(=O)C=C1CC[C@@H]1[C@@H]2C(=O)C[C@@]2(C)[C@H]1CC[C@]2(O)C(=O)CO [Prednisone]
TRUE

Can CC(C)(C)NC[C@H](O)COc1cccc2c1CCCC2=O [(-) -Levobunolol hydrochloride] be said to have growth at or above 0.2?
TRUE

Does the molecule Cc1cc(C(C)(C)CC(C)(C)C)ccc1OCCOCC[N+](C)(C)Cc1ccccc1 [Methyl benzethonium chloride] have recorded growth that is 0.2 or more?
FALSE

Has CC(=O)Nc1ccc(OCC(O)CNC(C)C)cc1 (configuration not stated) [Practolol] a recorded growth greater than or equal to 0.2?
TRUE

// inclusive: growth at least 0.2? input: CCC(=O)OCC(=O)[C@@]1(OC(=O)CC)[C@H](C)C[C@H]2[C@H]3[C@H]([C@@H](O)C[C@@]21C)[C@@]1(C)C=CC(=O)C=C1C[C@H]3Cl [Alclometasone dipropionate]
TRUE

====

Please provide measured growth for the entries that follow.
Tested on: E. coli TESEC Mtb Alr
experiment: growth (OD600 after 10 h); higher = more growth (less inhibition)
cond: arabinose 10000000 nM; compound 0.1 mM; raw OD600 reference: median of DMSO wells […], cell-free background 0.052
Structures can show the parent of a compound that is named as a salt.
# respond with the number and nothing more

Summary for this molecule, CC(=O)N(CC(C)C(=O)O)c1c(I)cc(I)c(N)c1I (stereo not given) [Iocetamic acid] : growth is 0.397

Short answer for CCCCNc1c(C(=O)OCC)c(C)nc2c1cnn2CC [Tracazolate hydrochloride] : growth was 0.186

The value of growth measured for the molecule CCN1CCCC(OC(=O)C(c2ccccc2)c2ccccc2)C1 (stereo not given) [Piperidolate hydrochloride] turned out to be 0.329

growth reading for Oc1c(Cl)cc(Cl)c(Cl)c1Cc1c(O)c(Cl)cc(Cl)c1Cl [Hexachlorophene] : 0.0602

The reported growth of the molecule CN1C(C(=O)Nc2ccccn2)=C(O)c2sccc2S1(=O)=O [Tenoxicam] was 0.277

growth for CN(C)CC/C=C1/c2ccccc2Sc2ccc(Cl)cc21 [Chlorprothixene hydrochloride] is 0.0664

Short answer for c1ccc(-c2ccc(C(c3ccccc3)n3ccnc3)cc2)cc1 (stereo not given) [Bifonazole] : growth was 0.0689

# growth (molecule: C[C@@H]1C[C@H]2[C@@H]3C[C@H](F)C4=CC(=O)C=C[C@]4(C)[C@@]3(Cl)[C@@H](O)C[C@]2(C)[C@H]1C(=O)COC(=O)C(C)(C)C [Clocortolone pivalate] ) is 0.377

Value of measured growth for the entry C[C@H](O)C(=O)Nc1c(I)c(C(=O)NC(CO)CO)c(I)c(C(=O)NC(CO)CO)c1I [Iopamidol] : 0.338

get_value(item= Cc1c(C)c2c(c(C)c1O)CCC(C)(COc1ccc(CC3SC(=O)NC3=O)cc1)O2 (stereo not given) [Troglitazone] , readout=growth) returns 0.0573

molecule COc1ccc2[nH]c([S+]([O-])Cc3ncc(C)c(OC)c3C)nc2c1 (stereo not given) [Omeprazole] , growth observed: 0.263

Record summary for CC(=O)O[C@H]1C(=O)[C@@]2(C)[C@H]([C@H](OC(=O)c3ccccc3)[C@]3(O)C[C@H](OC(=O)[C@H](O)[C@@H](NC(=O)c4ccccc4)c4ccccc4)C(C)=C1C3(C)C)[C@]1(OC(C)=O)CO[C@@H]1C[C@@H]2O [Paclitaxel] : reported growth = 0.336

Sample CCOc1ccc(Cc2nccc3cc(OCC)c(OCC)cc23)cc1OCC [Ethaverine hydrochloride] ; growth observed: 0.0633

Note to self: growth recorded for CC(=O)OCC(=O)[C@@]1(O)CC[C@H]2[C@@H]3CCC4=CC(=O)C=C[C@]4(C)[C@@]3(F)[C@@H](O)C[C@@]21C [Isoflupredone acetate] was 0.286

# molecule CC(=O)O[C@]1(C(C)=O)CC[C@H]2[C@@H]3C=C(C)C4=CC(=O)CC[C@]4(C)[C@H]3CC[C@@]21C [Megestrol acetate] ; its growth = 0.302

Origin of measurements: the supplement of paper PMC9262897
